tested on: isolated mouse liver mitochondria; assay: Loss of mitochondrial transmembrane potential; assay type: biochemical; conditions: 20% of maximal loss of ΔΨm (50µM mClCCP = 100%), 30-min incubation
quantity.measured: ΔΨm loss EC20

{"compound.structure": "COC(=O)c1ccc(O)cc1", "observed": "> 200 µM"}
{"compound.structure": "CC[C@H](C)C(=O)O[C@H]1C[C@H](O)C=C2C=C[C@H](C)[C@H](CC[C@@H](O)C[C@@H](O)CC(=O)O)[C@H]21", "observed": "> 200 µM"}
{"compound.structure": "O=C(O)CCCc1ccc(N(CCCl)CCCl)cc1", "observed": "> 200 µM"}
{"compound.structure": "Nc1ccc(S(=O)(=O)c2ccc(N)cc2)cc1", "observed": "> 400 µM"}
{"compound.structure": "CO[C@@]12[C@H](COC(N)=O)C3=C(C(=O)C(C)=C(N)C3=O)N1C[C@@H]1N[C@@H]12", "observed": "> 200 µM"}
{"compound.structure": "CO[C@H]1/C=C/O[C@@]2(C)Oc3c(C)c(O)c4c(O)c(c(/C=N/N5CCN(C)CC5)c(O)c4c3C2=O)NC(=O)/C(C)=C\\C=C\\[C@H](C)[C@H](O)[C@@H](C)[C@@H](O)[C@@H](C)[C@H](OC(C)=O)[C@@H]1C", "observed": "> 800 µM"}
{"compound.structure": "C[C@@H]1C[C@H]2[C@@H]3CCC4=CC(=O)C=C[C@]4(C)[C@@]3(F)[C@@H](O)C[C@]2(C)[C@@]1(O)C(=O)CO", "observed": "> 200 µM"}
{"compound.structure": "NCCS(=O)(=O)O", "observed": "> 800 µM"}
{"compound.structure": "Cc1cc(NS(=O)(=O)c2ccc(N)cc2)no1", "observed": "> 400 µM"}
{"compound.structure": "CN1CCC[C@H]1c1cccnc1", "observed": "> 400 µM"}
{"compound.structure": "Nc1c(Br)cc(Br)cc1CN[C@H]1CC[C@H](O)CC1", "observed": "> 200 µM"}
{"compound.structure": "CC(=O)Nc1ccc(O)cc1", "observed": "> 200 µM"}

* * *

tested on: isolated mouse liver mitochondria, complex I; experiment: Oxygen consumption through complex I; conditions: inhibition of oxygen consumption, malate + glutamate + ADP; 2µM rotenone = 100%

{"compound": "Cc1cc(=O)n(-c2ccccc2)n1C [Antipyrine]", "O2 cons CI EC20": "> 400 µM"}
{"compound": "OC[C@H]1O[C@@](CO)(O[C@H]2O[C@H](CO)[C@@H](O)[C@H](O)[C@H]2O)[C@@H](O)[C@@H]1O", "O2 cons CI EC20": "> 800 µM"}
{"compound": "Nc1c(Br)cc(Br)cc1CN[C@H]1CC[C@H](O)CC1", "O2 cons CI EC20": "> 200 µM"}
{"compound": "CCN(CC)CC#CCOC(=O)C(O)(c1ccccc1)C1CCCCC1 (centres unmarked)", "O2 cons CI EC20": "115.4 µM"}
{"compound": "O=C(O)c1ccccc1O", "O2 cons CI EC20": "120.9 µM"}
{"compound": "Cc1ccc(Nc2c(F)cccc2Cl)c(CC(=O)O)c1", "O2 cons CI EC20": "12.0 µM"}
{"compound": "COc1cc(CNC(=O)CCCC/C=C/C(C)C)ccc1O", "O2 cons CI EC20": "15.7 µM"}
{"compound": "CCCCN1CCCCC1C(=O)Nc1c(C)cccc1C (centres unmarked)", "O2 cons CI EC20": "> 800 µM"}
